System: Staphylococcus aureus
Assay: Antimicrobial activity against Staphylococcus aureus at 75 ug/ml after 24 hrs by agar diffusion method
Format: functional
Conditions: read-out: IZ
Recorded zone of inhibition at 75 µg/mL values for a group of compounds are listed next.
property-measured: zone of inhibition at 75 µg/mL (mm)

> print(dat)
                                 smiles.str  reported.result
1  CN1C[C@@H](c2ccccc2)[C@@]2(CCc3c([nH]c4ccccc34)C2=O)C12C(=O)c1ccccc1C2=O               16
2  Cc1ccc([C@@H]2CN(C)C3(C(=O)c4ccccc4C3=O)[C@]23CCc2c([nH]c4ccccc24)C3=O)cc1               18
3  Cc1ccc([C@@H]2CN(C)[C@@]3(C(=O)c4cccc5cccc3c45)[C@]23CCc2c([nH]c4ccccc24)C3=O)cc1               23
4  CN1C[C@@H](c2ccc(Br)cc2)[C@@]2(CCc3c([nH]c4ccccc34)C2=O)[C@]12C(=O)c1cccc3cccc2c13               18

====

Test system: Proteus mirabilis
Assay: Antimicrobial activity against Proteus mirabilis at 25 ug/ml after 24 hrs by agar diffusion method
Assay type: functional
Settings: read-out: IZ
Documented zone of inhibition at 25 µg/mL across a set of molecules
property-measured: zone of inhibition at 25 µg/mL (mm)

> print(dat)
                                 smiles.str  unit.info  reported.result
1  CN1C[C@@H](c2ccc([N+](=O)[O-])cc2)[C@@]2(CCc3c([nH]c4ccccc34)C2=O)[C@]12C(=O)c1cccc3cccc2c13         mm                9
2  CN1C[C@@H](c2ccccc2)[C@@]2(CCc3c([nH]c4ccccc34)C2=O)[C@]12C(=O)c1cccc3cccc2c13         mm               11
3  CN1C[C@@H](c2ccc(Cl)cc2)[C@@]2(CCc3c([nH]c4ccccc34)C2=O)[C@]12C(=O)c1cccc3cccc2c13         mm               12
4  Cc1ccc([C@@H]2CN(C)[C@@]3(C(=O)c4cccc5cccc3c45)[C@]23CCc2c([nH]c4ccccc24)C3=O)cc1         mm               11
5  CN1C[C@@H](c2ccc([N+](=O)[O-])cc2)[C@@]2(CCc3c([nH]c4ccccc34)C2=O)[C@]12C(=O)Nc1ccccc12         mm               12
6  CN1C[C@@H](c2ccccc2)[C@@]2(CCc3c([nH]c4ccccc34)C2=O)[C@]12C(=O)Nc1ccccc12         mm                9
7  CN1C[C@@H](c2ccc(Br)cc2)[C@@]2(CCc3c([nH]c4ccccc34)C2=O)C12C(=O)c1ccccc1C2=O         mm                9

====

Test system: Salmonella enterica subsp. enterica serovar Typhi str. CT18
Assay: Antimicrobial activity against Salmonella typhi at 75 ug/ml after 24 hrs by agar diffusion method
Assay type: functional
Conditions: read-out: IZ
property-measured: zone of inhibition at 75 µg/mL (mm)

> print(dat)
                                 smiles.str               property.measured  unit.info  reported.result
1  CN1C[C@@H](c2ccc(Cl)cc2)[C@@]2(CCc3c([nH]c4ccccc34)C2=O)C12C(=O)c1ccccc1C2=O  zone of inhibition at 75 µg/mL         mm               16
2  CN1C[C@@H](c2ccc(Cl)cc2)[C@@]2(CCc3c([nH]c4ccccc34)C2=O)[C@]12C(=O)c1cccc3cccc2c13  zone of inhibition at 75 µg/mL         mm               21
3  CN1C[C@@H](c2ccccc2)[C@@]2(CCc3c([nH]c4ccccc34)C2=O)[C@]12C(=O)Nc1ccccc12  zone of inhibition at 75 µg/mL         mm               13
4  CN1C[C@@H](c2ccc(Cl)cc2)[C@@]2(CCc3c([nH]c4ccccc34)C2=O)[C@]12C(=O)Nc1ccccc12  zone of inhibition at 75 µg/mL         mm               17
